Assayed Target: h-Sortilin (Homo sapiens, UniProt Q99523)
Sequence (Q99523 78-831): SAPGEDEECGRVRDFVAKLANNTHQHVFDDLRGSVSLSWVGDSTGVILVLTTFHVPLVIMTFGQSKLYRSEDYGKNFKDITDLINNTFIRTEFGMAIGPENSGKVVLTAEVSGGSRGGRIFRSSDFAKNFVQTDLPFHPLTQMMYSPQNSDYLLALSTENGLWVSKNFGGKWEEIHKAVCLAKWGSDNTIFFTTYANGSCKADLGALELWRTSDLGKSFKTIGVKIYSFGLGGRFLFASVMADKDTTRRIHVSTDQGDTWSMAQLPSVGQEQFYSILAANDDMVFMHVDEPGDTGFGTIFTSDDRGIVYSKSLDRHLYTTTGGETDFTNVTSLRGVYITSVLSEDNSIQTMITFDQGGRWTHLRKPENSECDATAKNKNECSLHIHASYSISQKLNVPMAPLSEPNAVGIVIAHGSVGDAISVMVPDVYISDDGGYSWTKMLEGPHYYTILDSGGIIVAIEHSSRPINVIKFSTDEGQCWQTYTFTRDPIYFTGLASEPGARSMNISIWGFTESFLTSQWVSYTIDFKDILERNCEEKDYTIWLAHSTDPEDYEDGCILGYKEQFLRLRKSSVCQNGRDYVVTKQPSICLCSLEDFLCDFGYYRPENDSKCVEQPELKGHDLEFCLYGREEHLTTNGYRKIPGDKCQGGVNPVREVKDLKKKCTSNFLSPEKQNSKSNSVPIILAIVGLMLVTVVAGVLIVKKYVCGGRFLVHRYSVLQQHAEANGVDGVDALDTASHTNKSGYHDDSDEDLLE
Structures can show the parent of a compound that is named as a salt.
Overview of recorded IC50 for various compounds
Measured Parameter: IC50 (nM)

Compound: COc1cccc(CNC(C)(CCC(C)(C)C)C(=O)O)c1 (racemic) [Example 4, hydrochloride]
Unit Annotation: nM
Reported Result: 4020
--
Compound: COc1cccc(CN[C@@](C)(CCC(C)(C)C)C(=O)O)c1 [Example 5, hydrochloride]
Unit Annotation: nM
Reported Result: 1330
--
Compound: CC(C)(C)CCC(C)(NCCCc1ccccc1)C(=O)O (racemic) [Example 9]
Unit Annotation: nM
Reported Result: 9740
--
Compound: CC(C)(C)CC[C@](C)(NCc1cncnc1)C(=O)O (single isomer, unassigned) [Example 10]
Unit Annotation: nM
Reported Result: 383

====

Assayed Target: Sortilin receptor at the cell surface (Homo sapiens)
Experimental Details: Progranulin cell surface engagement assay
Test Parameters: displacement of 100 nM PGRN-AF647, HEK293 engineered to express sortilin, on ice; average of at least 2 determinations
pIC50: −log10 of the molar value.

Compound: CC(C)(C)CC[C@](C)(NCc1cncnc1)C(=O)O (single isomer, unassigned)
pIC50: 6.17

====

Overview of recorded Kd for various compounds
Assayed Target: Human (6-His)Sortilin (Homo sapiens, UniProt Q99523)

Compound: CC(C)(C)CC[C@](C)(NCc1cncnc1)C(=O)O (single isomer, unassigned)
Assayed Target: Human (6-His)Sortilin (Homo sapiens, UniProt Q99523)
Unit Annotation: nM
Kd: 804
--
Compound: CC(C)(C)CC[C@](C)(NCc1ccccc1)C(=O)O
Assayed Target: Human (6-His)Sortilin (Homo sapiens, UniProt Q99523)
Unit Annotation: nM
Kd: 393
--
Compound: COc1cccc(CNC(C)(CCC(C)C)C(=O)O)c1 (racemic)
Assayed Target: Human (6-His)Sortilin (Homo sapiens, UniProt Q99523)
Unit Annotation: nM
Kd: 1270
--
Compound: CC(C)(C)CCC(C)(NCc1ccccc1)C(=O)O (racemic)
Assayed Target: Human (6-His)Sortilin (Homo sapiens, UniProt Q99523)
Unit Annotation: nM
Kd: 621
